# System: MOLM14
# protocol: cell viability relative to vehicle control; higher = less cytotoxic;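 also: after 48 h exposure read by CellTiter-Glo luminescence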
# setupConditions: 10 µM; SRSF2 genotype: SRSF2 P95H/wt
Where a name gives a salt, the structure may show the parent alone.
Checkbox rule: cell viability lower than 70% = Condition met; cell viability not lower than 70% = Condition not met.

The examples below pair each entry with its known result.
1) C=C(C)C1CCC2(C)CCC(=O)C(C)=C2C1 (configuration not stated) = Condition not met
2) OC[C@H]1O[C@H](OC[C@H]2O[C@H](OC[C@H]3O[C@H](O[C@]4(CO)O[C@H](CO)[C@@H](O)[C@@H]4O)[C@H](O)[C@@H](O)[C@@H]3O)[C@H](O)[C@@H](O)[C@H]2O)[C@H](O)[C@@H](O)[C@H]1O [Stachyose] = Condition not met
3) CC[C@@]1(O)C(=O)OCc2c1cc1n(c2=O)Cc2cc3cc(O)ccc3nc2-1 [Hydroxy Camptothecine] = Condition met
4) C[C@H]1CNCCCN1S(=O)(=O)c1cccc2cncc(F)c12 [Ripasudil (K-115)] = Condition not met
5) COc1ccc(C2=N[C@@H](c3ccc(Cl)cc3)[C@@H](c3ccc(Cl)cc3)N2C(=O)N2CCNC(=O)C2)c(OC(C)C)c1 [Nutlin-3] = Condition met

Identify whether the compound CCc1cc(/C(C)=N/OCc2ccc(C3CCCCC3)c(C(F)(F)F)c2)ccc1CN1CC(C(=O)O)C1 [BAF312 (Siponimod)] records cell viability below 70%.
Condition met

Please state whether cell viability is below 70% for O[C@H]1[C@H]2c3cc4c(cc3CN3CCC(=C[C@@H]1O)[C@H]23)OCO4 [Lycorine hydrochloride]
Condition met

###

# Tested on: MARIMO
# protocol: cell viability relative to vehicle control; higher = less cytotoxic
# setupConditions: 10 µM; SRSF2 genotype: SRSF2 wt/wt
Structures can show the parent of a compound that is named as a salt.
Attribute: cell viability
Give the number; % is assumed, so skip it.

1. CC(C(=O)O)c1cccc(Oc2ccccc2)c1 (configuration not stated) [Fenoprofen calcium] = 92.5
2. OC[C@H]1O[C@@](CO)(O[C@H]2O[C@H](CO)[C@@H](O)[C@H](O)[C@H]2O)[C@@H](O[C@H]2O[C@H](CO)[C@@H](O)[C@H](O)[C@H]2O)[C@@H]1O [D-(+)-Melezitose] = 115
3. Cn1ncc(Cl)c1-c1cc(C(=O)N[C@H](CN)Cc2cccc(F)c2)sc1Cl = 63.7
4. COc1cc(O)c(C(=O)Nc2nc(C(=O)NCCN(C(C)C)C(C)C)cs2)cc1OC [Acotiamide] = 108

I am curious: what cell viability value has been reported for C/C(=C(/CCOC(=O)c1ccccc1)SC(=O)c1ccccc1)N(C=O)Cc1cnc(C)nc1N [Dibenzoyl Thiamine] ?
94

What measured cell viability goes with O=C(O)c1ccc(-n2nc(-c3ccccc3O)nc2-c2ccccc2O)cc1 [Deferasirox (Exjade)] ?
74

cell viability lookup needed for O=C1[C@H]2CCCC[C@H]2C(=O)N1CCCCN1CCN(c2nsc3ccccc23)CC1 [Perospirone hydrochloride] , thanks.
82.3

###

# System: MOLM14
# protocol: cell viability relative to vehicle control; higher = less cytotoxic
# setupConditions: 10 µM; SRSF2 genotype: SRSF2 wt/wt
Structures can show the parent of a compound that is named as a salt.
resultType: cell viability (%)
Provide only the numeric value, understood in %.

Worked examples follow.
1) Cc1cc(N2CCN([C@@H]3CN[C@H](C(=O)N4CCSC4)C3)CC2)n(-c2ccccc2)n1 [Teneligliptin hydrobromide] = 89
2) C=C1CCC[C@]2(C)C[C@]3(O)OC(=O)C(C)=C3C[C@@H]12 [Atractylenolide III] = 99
3) COc1cc2c(cc1O)CC[C@@H]1[C@@H]2CC[C@]2(C)[C@@H](O)CC[C@@H]12 = 2.27
4) NC(=O)c1cccc(-c2cccc(OC(=O)NC3CCCCC3)c2)c1 = 99
5) CO[C@H]1C[C@@H]2CC[C@@H](C)[C@@](O)(O2)C(=O)C(=O)N2CCCC[C@H]2C(=O)O[C@H]([C@H](C)C[C@@H]2CC[C@@H](OP(C)(C)=O)[C@H](OC)C2)CC(=O)[C@H](C)/C=C(\C)[C@@H](O)[C@@H](OC)C(=O)[C@H](C)C[C@H](C)/C=C/C=C/C=C/1C = 60.8
6) CCOC(=O)[C@H](CCc1ccccc1)N[C@@H](C)C(=O)N1Cc2cc(OC)c(OC)cc2C[C@H]1C(=O)O [Moexipril HCl] = 109
7) CCOC(=O)C1=C(C)NC(=S)NC1c1cccc(O)c1 (stereo not drawn) = 103

Shifting focus to the molecule that follows.
Given the molecule Cc1cc(-c2nc(-c3ccc(OC(F)(F)F)cc3)no2)nn1Cc1ccnc(N2CCN(C3CC3)CC2)c1 , what is its reported cell viability?
51.8
